Item-by-item account of folding stability dG
B1: r11_951_TrROS_Hall (parent)
chain: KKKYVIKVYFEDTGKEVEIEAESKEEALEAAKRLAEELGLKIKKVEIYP

Variants of: B1
Test: folding stability dG (cDNA display proteolysis); higher = more stable
Conditions: PBS, room temperature
OBSERVABLE: folding stability dG (kcal/mol)

>>> test_value("KKKYVIKVYFEDTGKEVEIEAESKEEALEAAKRLAEELGLKICKVEIYP [K43C]")
4.13
>>> test_value("KKKYVIKVYFEDTGKEVEIEAESKEEALEAAKRLAEELGLKIKFVEIYP [K44F]")
4.3
>>> test_value("KKKYVIKVYFEDTGKEVEIEAESKEEALEAAKRLAEELGLKKKKVEIYP [I42K]")
2.18
>>> test_value("KKKYVIKVYFEDTGQEVEIEAESKEEALEAAKRLAEELGLKIKKVEIYP [K15Q]")
4.27
>>> test_value("KKKYVIKVYFEDTGKEVEIEAESKEEALEAAKLLAEELGLKIKKVEIYP [R33L]")
4.23
>>> test_value("KKKYVIKVYFEDTGKEVEIEAESKEEALEAYKRLAEELGLKIKKVEIYP [A31Y]")
4.33
>>> test_value("KKKYVIKVYFEDTGKEVETEAESKEEALEAAKRLAEELGLKIKKVEIYP [I19T]")
3.98
>>> test_value("KKKYVIKVYFEDTGKEVMIEAESKEEALEAAKRLAEELGLKIKKVEIYP [E18M]")
4.35
>>> test_value("KKKYVIKVYFEDTGKEVEIEAESKEEALEAAKRLAEQLGLKIKKVEIYP [E37Q]")
4.77
>>> test_value("KKKYVIKVYGEDTGKEVEIEAESKEEALEAAKRLAEELGLKIKKVEIYP [F10G]")
3.16
>>> test_value("KKKYVIKVYFEDTGKEVEIEAESKEEALEAAKRLAEEFGLKIKKVEIYP [L38F]")
4.42
>>> test_value("KKKSVIKVYFEDTGKEVEIEAESKEEALEAAKRLAEELGLKIKKVEIYP [Y4S]")
3.36
>>> test_value("KKKYVIKVYFEDTGKEVEIEAESKEEALEAAKRLAEELGLKIKKVEKYP [I47K]")
3.7
>>> test_value("KKKYVIKVYFEDTGKEVEIEAESKEEALEAAKRLAEELGTKIKKVEIYP [L40T]")
3.92
>>> test_value("KKKYVIKVYFEDTGKEVEIEAESKEEALEAAKRLAEELGLKIKKVPIYP [E46P]")
2.41
>>> test_value("KKKYVIKVYFEDTGKEFEIEAESKEEALEAAKRLAEELGLKIKKVEIYP [V17F]")
4.42
>>> test_value("KKKYVIKVYFEDTGKEVEIEAESKEEALEAAKRLAEELGLKIKKVEIYA [P49A]")
4.33
>>> test_value("KKDYVIKVYFEDTGKEVEIEAESKEEALEAAKRLAEELGLKIKKVEIYP [K3D]")
3.86
>>> test_value("KKKYVIKVYFEDTGKEVEIETESKEEALEAAKRLAEELGLKIKKVEIYP [A21T]")
4.37
>>> test_value("KKKYVIKVYFEDTGKEVEIEAESKEEALEAAKRLHEELGLKIKKVEIYP [A35H]")
3.63
>>> test_value("KKKYVIKVYFEDTGKEVEIEAESKEEALESAKRLAEELGLKIKKVEIYP [A30S]")
4.45
>>> test_value("KKKYVIKVYFEDTGTEVEIEAESKEEALEAAKRLAEELGLKIKKVEIYP [K15T]")
4.5
>>> test_value("KKKYVIKVYFEDTGKEVEIYAESKEEALEAAKRLAEELGLKIKKVEIYP [E20Y]")
4.56
>>> test_value("KKKNVIKVYFEDTGKEVEIEAESKEEALEAAKRLAEELGLKIKKVEIYP [Y4N]")
2.92
>>> test_value("KKKYVIKVYFEDTGKEVEIECESKEEALEAAKRLAEELGLKIKKVEIYP [A21C]")
4.07
>>> test_value("KKKYVIKVYFEDTGKEVEIEAESKEEALEAAKRLAEELGNKIKKVEIYP [L40N]")
3.66
>>> test_value("KKKYVIKVYFEDTGKEVEIEYESKEEALEAAKRLAEELGLKIKKVEIYP [A21Y]")
4.18
>>> test_value("KKKYVIKVYFEDTGKEVEIEAESKEEALEAAKRLAEKLGLKIKKVEIYP [E37K]")
4.68
>>> test_value("KKKYVIKVYFEDTGKEVEILAESKEEALEAAKRLAEELGLKIKKVEIYP [E20L]")
4.36
>>> test_value("KKKYVIKVYFEDTGKEVEIEAESKEEALEAAKRLAEELGLKIKRVEIYP [K44R]")
4.4
>>> test_value("KKKYCIKVYFEDTGKEVEIEAESKEEALEAAKRLAEELGLKIKKVEIYP [V5C]")
3.83
>>> test_value("KKKYVIKVYFEDTGKEVEIEAESKEEALEAAKRLAEELGLKIKKVQIYP [E46Q]")
4.26
>>> test_value("KKKYVIKVYFEDTGKEVEIEAESKEEALEAAKRLAEELGLKIKKVFIYP [E46F]")
4.64
>>> test_value("KKKYVIKVYFEDTGKEVEIEAESKEEALEAAKRHAEELGLKIKKVEIYP [L34H]")
4.22
>>> test_value("KKKYVIKFYFEDTGKEVEIEAESKEEALEAAKRLAEELGLKIKKVEIYP [V8F]")
4.61
>>> test_value("KKKYVIKVYFERTGKEVEIEAESKEEALEAAKRLAEELGLKIKKVEIYP [D12R]")
4.79
>>> test_value("KKKYVIKVYFEDTGKEVEIEAESKNEALEAAKRLAEELGLKIKKVEIYP [E25N]")
4.16
>>> test_value("KKKYVIKVYFEDTGKETEIEAESKEEALEAAKRLAEELGLKIKKVEIYP [V17T]")
4.29
>>> test_value("KKKYVIKVYFEDTGKEVEIEAESKEEALEAAKRLAEELGLKIKKVENYP [I47N]")
3.89
>>> test_value("KKKYVIKVYFEDTGKEVEIEAESKEEALEAAKRLAEELGLKIKAVEIYP [K44A]")
4.26
>>> test_value("KKKYVIKVYFEDTGKEVEIEAESKEEALEAATRLAEELGLKIKKVEIYP [K32T]")
4.41
>>> test_value("KKKYVIKVYFEDTGKEVEIEAESKEEAEEAAKRLAEELGLKIKKVEIYP [L28E]")
4.28
>>> test_value("KKKYVIKVYFEDTGKIVEIEAESKEEALEAAKRLAEELGLKIKKVEIYP [E16I]")
4.55
>>> test_value("SKKYVIKVYFEDTGKEVEIEAESKEEALEAAKRLAEELGLKIKKVEIYP [K1S]")
4.25
>>> test_value("KKKYVIKVYFEATGKEVEIEAESKEEALEAAKRLAEELGLKIKKVEIYP [D12A]")
4.41
>>> test_value("KKKYVVKVYFEDTGKEVEIEAESKEEALEAAKRLAEELGLKIKKVEIYP [I6V]")
4.06
>>> test_value("KKFYVIKVYFEDTGKEVEIEAESKEEALEAAKRLAEELGLKIKKVEIYP [K3F]")
4.64
>>> test_value("KKKYVIKVYFEDTGKEVEIEAESKEEALEAAKRLAEMLGLKIKKVEIYP [E37M]")
4.67
>>> test_value("KKKYVIKVYFEDTGKEVEGEAESKEEALEAAKRLAEELGLKIKKVEIYP [I19G]")
3.31
>>> test_value("KKKYVIKVYFEDTGKEVSIEAESKEEALEAAKRLAEELGLKIKKVEIYP [E18S]")
4.25
>>> test_value("KKKYVIKVYKEDTGKEVEIEAESKEEALEAAKRLAEELGLKIKKVEIYP [F10K]")
1.65
>>> test_value("KKKYVIKVYFEDTGKEVEIEAESKIEALEAAKRLAEELGLKIKKVEIYP [E25I]")
4.27
>>> test_value("KKKYVIKVYFEDTGKEVEIEAESKEPALEAAKRLAEELGLKIKKVEIYP [E26P]")
3.07
>>> test_value("KKKYVIKVYFEDTGKEVEIEAESKEEMLEAAKRLAEELGLKIKKVEIYP [A27M]")
3.71
>>> test_value("KKKYVIKVFFEDTGKEVEIEAESKEEALEAAKRLAEELGLKIKKVEIYP [Y9F]")
4.25
>>> test_value("KKKYVIKVNFEDTGKEVEIEAESKEEALEAAKRLAEELGLKIKKVEIYP [Y9N]")
3.87
>>> test_value("KCKYVIKVYFEDTGKEVEIEAESKEEALEAAKRLAEELGLKIKKVEIYP [K2C]")
4.46
>>> test_value("KKKYVIKVYFEDTGKEVEIEAESKEEALEIAKRLAEELGLKIKKVEIYP [A30I]")
4.49
>>> test_value("KKKYVIKVYFEDTEKEVEIEAESKEEALEAAKRLAEELGLKIKKVEIYP [G14E]")
4.3
>>> test_value("KKKYVIKVYFEDTGKEVEIEAESKEEALEAAKRLAEELGLKIKKVEIYL [P49L]")
4.62
>>> test_value("KKKYVIKVYFEDTGKEVEIEAESKEEALEAAKRLACELGLKIKKVEIYP [E36C]")
4.39
>>> test_value("KKKYVIKVYFEDTGKEVEIEAESKEEALEAAKTLAEELGLKIKKVEIYP [R33T]")
4.18
>>> test_value("KKKYVIKVYFEDTGKEVEIEAESKEEALEAAGRLAEELGLKIKKVEIYP [K32G]")
4.13
>>> test_value("KKKYVIKVYFEDTGKEVEIEAESKEEAPEAAKRLAEELGLKIKKVEIYP [L28P]")
3.39
>>> test_value("KKKYVIKVYFEDTGKEVEIEAESKEEQLEAAKRLAEELGLKIKKVEIYP [A27Q]")
2.23
>>> test_value("KKKYVIKVYFEDTGKEVEIEAESKEEALEAAKRLAEELGMKIKKVEIYP [L40M]")
4.31
>>> test_value("KKKYVIKVYFEDTGKEVEIEAESKEEALEDAKRLAEELGLKIKKVEIYP [A30D]")
4.16
>>> test_value("KKKYVIKVYFEDTGKEVEIRAESKEEALEAAKRLAEELGLKIKKVEIYP [E20R]")
4.29
>>> test_value("KKKYVIKVYFEDTGKEVEIEAESKEEALEAAKRLAEELTLKIKKVEIYP [G39T]")
4
>>> test_value("KKKYVIKVYFEDTGKEVEIEAESKEEALEAAKRLAEELGLKIKKVEIYN [P49N]")
4.68
>>> test_value("KKKYVIKVYFEDTGKENEIEAESKEEALEAAKRLAEELGLKIKKVEIYP [V17N]")
3.71
>>> test_value("KKKYVIKVYFEDTGKTVEIEAESKEEALEAAKRLAEELGLKIKKVEIYP [E16T]")
4.45
>>> test_value("KKKYVIKNYFEDTGKEVEIEAESKEEALEAAKRLAEELGLKIKKVEIYP [V8N]")
1.36
>>> test_value("KKKYVIKVYFEDTGKFVEIEAESKEEALEAAKRLAEELGLKIKKVEIYP [E16F]")
4.5
>>> test_value("KKKYVIKVYFEDTGKEVEIEAESIEEALEAAKRLAEELGLKIKKVEIYP [K24I]")
4.52
>>> test_value("KKKYVIKVYFEDTGKEVEIEAESKEEPLEAAKRLAEELGLKIKKVEIYP [A27P]")
2.74
>>> test_value("KKKYVIKVYFEDTGKEVEIEAESKEEALEAAKRAAEELGLKIKKVEIYP [L34A]")
4.16
>>> test_value("KKKYVIKVYFEFTGKEVEIEAESKEEALEAAKRLAEELGLKIKKVEIYP [D12F]")
4.64
>>> test_value("KKKYVIKVYFEDTGKEVEIEAESKEEALEAAKRLQEELGLKIKKVEIYP [A35Q]")
3.9
>>> test_value("KKKYVIKVYFEDTGKEVEIEAESKEEALEAHKRLAEELGLKIKKVEIYP [A31H]")
2.62
>>> test_value("KKKYVIKVYFEDTGKEVEIEAESKEEALEAAKRLAEELGLKQKKVEIYP [I42Q]")
2.53
>>> test_value("KKKYVIKVYFEDTGKEVEIEAESKEEALEAAKRLAEGLGLKIKKVEIYP [E37G]")
4.55
